- measured-on: progesterone receptor (Bos taurus, UniProt F1N712)
- Construct: from tissue; host or cells: bovine uterus cytosol
- assay-comment: Inhibition of 3H-progesterone binding to bovine uteral progesterone receptors
- experimental-conditions: read-out: % of inhibition of 3H-progesterone binding, B, competitor 10^-6 M; 0.25 nM 3H-progesterone
readout-name: inhibition at 1 µM

Example entries begin here.
molecule	measured-on	readout-name	measured
C[C@]12CC[C@@H](O)C[C@@H]1CC[C@@H]1[C@@H]2CC[C@]2(C)[C@@H](C(=O)CO)CC[C@@H]12 [Example 5α-THDOC, 3α,21-dihydroxy-5α-pregnan-20-one]	progesterone receptor (Bos taurus, UniProt F1N712)	inhibition at 1 µM	5%
CC(=O)[C@H]1CC[C@H]2[C@@H]3CC[C@H]4C[C@](C)(O)CC[C@]4(C)[C@H]3CC[C@]12C [3α-HYDROXY-3β-METHYL-5α-PREGNAN-20-ONE, 3α-hydroxy-3β-methyl-5α-pregnan-20-one]	progesterone receptor (Bos taurus, UniProt F1N712)	inhibition at 1 µM	2%
C[C@H](O)[C@H]1CC[C@H]2[C@@H]3CC[C@H]4C[C@H](O)CC[C@]4(C)[C@H]3CC[C@]12C	progesterone receptor (Bos taurus, UniProt F1N712)	inhibition at 1 µM	1%

# context switch: different molecule, same inhibition at 1 µM
Incoming: Request the reported inhibition at 1 µM associated with "CC(=O)[C@H]1CC[C@H]2[C@@H]3CC[C@@H]4C[C@H](O)CC[C@]4(C)[C@H]3CC[C@]12C"
Outgoing: 1%

====

- measured-on: progesterone receptor (Bos taurus, UniProt F1N712)
- Construct: from tissue; host or cells: bovine uterus cytosol
- Sequence (F1N712 1-914): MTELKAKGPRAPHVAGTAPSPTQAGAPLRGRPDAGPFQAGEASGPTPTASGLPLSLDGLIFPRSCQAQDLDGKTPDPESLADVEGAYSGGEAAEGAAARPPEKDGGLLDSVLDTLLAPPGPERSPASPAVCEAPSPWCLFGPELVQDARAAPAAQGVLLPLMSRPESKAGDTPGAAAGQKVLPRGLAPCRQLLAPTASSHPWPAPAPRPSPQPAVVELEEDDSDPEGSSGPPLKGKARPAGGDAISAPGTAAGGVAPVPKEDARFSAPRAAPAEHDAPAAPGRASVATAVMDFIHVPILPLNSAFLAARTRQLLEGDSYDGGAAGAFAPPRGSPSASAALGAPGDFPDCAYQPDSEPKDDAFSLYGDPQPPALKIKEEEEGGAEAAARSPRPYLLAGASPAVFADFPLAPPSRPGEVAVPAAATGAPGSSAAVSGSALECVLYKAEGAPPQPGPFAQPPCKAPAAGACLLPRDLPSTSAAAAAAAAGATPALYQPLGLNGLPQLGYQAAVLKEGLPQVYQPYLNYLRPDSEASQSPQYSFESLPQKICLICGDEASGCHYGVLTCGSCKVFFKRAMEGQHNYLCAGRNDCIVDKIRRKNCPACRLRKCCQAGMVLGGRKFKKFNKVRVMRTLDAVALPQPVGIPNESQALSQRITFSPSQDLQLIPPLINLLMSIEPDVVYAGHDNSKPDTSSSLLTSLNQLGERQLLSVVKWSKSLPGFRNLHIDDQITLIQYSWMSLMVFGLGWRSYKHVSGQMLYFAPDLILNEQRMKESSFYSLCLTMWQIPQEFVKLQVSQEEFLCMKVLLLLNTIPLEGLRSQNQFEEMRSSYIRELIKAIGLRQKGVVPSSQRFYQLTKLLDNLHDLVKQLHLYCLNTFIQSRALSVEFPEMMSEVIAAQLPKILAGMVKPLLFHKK
- assay-comment: Inhibition of 3H-progesterone binding to bovine uteral progesterone receptors
- experimental-conditions: read-out: % of inhibition of 3H-progesterone binding, A, competitor 10^-5 M; 0.15 nM 3H-progesterone
inhibition at 10 µM for assorted compounds
Your answer is read as %, so omit the unit and give the number.

Reference set, count: 7
compound	inhibition at 10 µM, %
C[C@]12CC[C@@H](O)C[C@@H]1CC[C@@H]1[C@@H]2CC[C@]2(C)[C@@H](C(=O)CO)CC[C@@H]12 [Example 5α-THDOC, 3α,21-dihydroxy-5α-pregnan-20-one]	35
CC(C)(O)[C@H]1CC[C@H]2[C@@H]3CC[C@H]4C[C@](C)(O)CC[C@]4(C)[C@H]3CC[C@]12C	5
CC(=O)[C@H]1CC[C@H]2[C@@H]3CC[C@H]4C[C@H](O)CC[C@]4(C)[C@H]3CC[C@]12C [Example 3α-OH-DHP, 3α-hydroxy-5α-pregnan-20-one]	41
C[C@H](O)[C@H]1CC[C@H]2[C@@H]3CC[C@H]4C[C@H](O)CC[C@]4(C)[C@H]3CC[C@]12C	2
CC(=O)[C@H]1CC[C@H]2[C@@H]3CC[C@H]4C[C@](C)(O)CC[C@]4(C)[C@H]3CC[C@]12C [3α-HYDROXY-3β-METHYL-5α-PREGNAN-20-ONE, 3α-hydroxy-3β-methyl-5α-pregnan-20-one]	10
CC(=O)[C@H]1CC[C@H]2[C@@H]3CC[C@@H]4C[C@H](O)CC[C@]4(C)[C@H]3CC[C@]12C	17
C[C@H](O)[C@H]1CC[C@H]2[C@@H]3CC[C@@H]4C[C@H](O)CC[C@]4(C)[C@H]3CC[C@]12C	1

Now take the following compound into account.
Incoming: Which inhibition at 10 µM value is on record for "C[C@]12CC[C@@H](O)C[C@H]1CC[C@@H]1[C@@H]2CC[C@]2(C)[C@@H](C(=O)CO)CC[C@@H]12" ?
Outgoing: 19
